Source of measurements: PubChem BioAssay AID1259407

Tested on: CCRIS mutagenicity, Ames/micronucleus/aberration tests
Protocol summary: CCRIS mutagenicity studies
Run conditions: Test System: CHINESE HAMSTER V-79; Strain/Indicator: V-79/6-THIOGUANINE; Metabolic Activation: NONE
Active and inactive are the calls of the source. How the calls were made is not given here.
# output must be one of True (active), False (inactive)

A selection of reference data follows.
Cc1ccc([N+]#N)cc1 :: True
CCC=O :: False

Consider now this further molecule.
Incoming: Tell me the assay call for N#[N+]c1ccc(CO)cc1 please.
Outgoing: True

* * *

Test system: CCRIS mutagenicity, Ames/micronucleus/aberration tests
Protocol summary: CCRIS mutagenicity studies
Run conditions: Test System: AMES SALMONELLA TYPHIMURIUM; Strain/Indicator: TA98; Metabolic Activation: NONE; Method: PREINCUBATION
Calls of active or inactive are those of the source. How the calls were made is not given here.
Your response should consist of one outcome taken from TRUE = active, FALSE = inactive

A selection of reference data follows.
O=S(=O)(O)Oc1ccc2ccc3cc4ccccc4c4ccc1c2c34 :: TRUE
Nc1ccc([As](=O)(O)O)cc1 :: FALSE
CCOP(=S)(OCC)SCSCC :: FALSE
CC/C(=C(/c1ccc(OCCN(C)C)cc1)c1ccc(OP(=O)(O)O)cc1)c1ccc(C(C)C)cc1 :: FALSE
C=C(C)C(=O)OC(C)C :: FALSE

Incoming: Could you check what this test reported for Clc1nncc2ncccc12 ?
Outgoing: FALSE

Incoming: # fetch the recorded call for O=C(O)C(F)(F)C(F)(F)C(F)(F)C(F)(F)C(F)(F)C(F)(F)C(F)(F)C(F)(F)C(F)(F)F here
Outgoing: FALSE

Incoming: GET /call?item= Nc1cc(N)c(-c2ccccc2)c([N+](=O)[O-])c1 returns the recorded outcome of this test.
Outgoing: TRUE

Incoming: What outcome does the record of this test show for Nc1cc([N+](=O)[O-])c(-c2ccccc2)c([N+](=O)[O-])c1 ?
Outgoing: FALSE

Incoming: # lookup: test call for CCN(CC)c1ccc(N)cc1
Outgoing: FALSE

Incoming: Record lookup: outcome of this test for Nc1ncnc2c1ncn2-c1cccc([N+](=O)[O-])c1 ?
Outgoing: TRUE

Incoming: What classification did C=C(C)C(=O)OCCCCCCCC(C)C end up with in this test?
Outgoing: FALSE

* * *

Tested on: CCRIS mutagenicity, Ames/micronucleus/aberration tests
Protocol summary: CCRIS mutagenicity studies
Run conditions: Test System: AMES SALMONELLA TYPHIMURIUM; Strain/Indicator: TA100; Metabolic Activation: NONE; Method: STANDARD PLATE
Excerpt: The CCRIS database contains chemical records with carcinogenicity, mutagenicity, tumor promotion, and tumor inhibition test results. It was developed by the National Cancer Institute (NCI). Data are derived from studies cited in primary journals, current awareness tools, NCI reports, and other sources. Test results have been reviewed by experts in carcinogenesis and mutagenesis. CCRIS provides historical information from the years 1985 - 2011. It is no longer updated. […]
Calls of active or inactive are those of the source. How the calls were made is not given here.
Pick from label 1 for active, label 0 for inactive when you respond.

Reference set, count: 3
C[C@]1(O)CC[C@H]2[C@@H]3CCC4=CC(=O)CC[C@]4(C)[C@@]3(F)[C@@H](O)C[C@@]21C :: label 0
Clc1ccncc1 :: label 0
O=C(/C=C/c1ccc(O)c(O)c1)O[C@@H]1C[C@](O)(C(=O)O)C[C@@H](O)[C@H]1O :: label 0

Incoming: Assay result, entry OC[C@H]1O[C@@H](n2cnc3c(NC[C@H](O)COc4cccc5ccccc45)ncnc32)[C@H](O)[C@@H]1O — outcome?
Outgoing: label 0

Incoming: Please indicate how the test categorized CC1(C)C2CCC3(CO3)C1C2 (stereo unspecified) .
Outgoing: label 0

Incoming: How did this test come out for O=Nn1cc(CCO)c2ccccc21 ?
Outgoing: label 1

Incoming: Lab log entry: CC(=O)N(O)c1ccc(Oc2ccccc2)cc1 — outcome as called in the assay?
Outgoing: label 0

Incoming: Entry C=C(Cl)CCl : call = ?
Outgoing: label 1

Incoming: GET /call?item= OC[C@H]1O[C@@H](n2cnc3c(NO)ncnc32)[C@H](O)[C@@H]1O returns the recorded outcome of this test.
Outgoing: label 1
